Cited source for all entries: PubChem BioAssay (NCI)

Test: NCI Yeast Anticancer Drug Screen. Data for the bub3 strain (AID 167)
Conditions: S. cerevisiae bub3 mutant strain, hits give high values; at 50.0 µM unless noted
The panel holds about 79,000 compounds, 15% with a hit somewhere; the sample as a whole holds those more often.
Item-by-item account of growth inhibition
The answer is to be given in %; state only the numeric part.

See these solved cases before continuing.
molecule: COc1ccc(/C(C)=C\C(=O)O)c(O)c1OC
property label: growth inhibition
reported measurement: 22.1

molecule: Nc1ccc2ncc(Nc3ccc(F)cc3)nc2c1
property label: growth inhibition
reported measurement: 17.8

molecule: CC(C)CCn1c(=O)c2c(ncn2C)n(C)c1=O
property label: growth inhibition
reported measurement: -0.5

molecule: CCC(SC(CC)(CC)C(=O)O)C(N)=O (configuration not stated)
property label: growth inhibition
reported measurement: -6

molecule: NC(=O)C1CC1
property label: growth inhibition
reported measurement: 9.25

Lookup: Return reported growth inhibition. Input molecule: CC1CC[N+](C)(CC(=O)c2ccc(-c3ccc(C(=O)C[N+]4(C)CCC(C)CC4)cc3)cc2)CC1 (configuration not stated)
Found: -3.15

Lookup: Return reported growth inhibition. Input molecule: "NCC(=O)c1ccc(CCC(=O)O)cc1"
Found: 6.3

----------
Assay: NCI Yeast Anticancer Drug Screen. Data for the bub3 strain (AID 167)
Conditions: S. cerevisiae bub3 mutant strain, hits give high values; at 50.0 µM unless noted
This is part of a sample that, as a whole, favours compounds with a hit. Of some 79,000 tested, about 15% had one in any assay.
Item-by-item account of growth inhibition
The answer is to be given in %; state only the numeric part.

See these solved cases before continuing.
compound: CC1(C)C2(Cl)C(Cl)=C(Cl)C13C(Cl)(c1ccc([N+](=O)[O-])cc1C1(Cl)C(Cl)(Cl)C4(Cl)C(Cl)=C(Cl)C13C4(C)C)C2(Cl)Cl (configuration not stated)
measurement units: %
growth inhibition: -2.5
//
compound: C/C(=N/NC(N)=O)C1CCc2ccccc2C1 (configuration not stated)
measurement units: %
growth inhibition: 7.8
//
compound: O=C1c2cc([N+](=O)[O-])ccc2-c2ccc3c4ccc5c6c(ccc(c7ccc1c2c73)c64)C(=O)c1cc([N+](=O)[O-])ccc1-5
measurement units: %
growth inhibition: -35.2
//
compound: O=C(CCCCCCCC(=O)NO)NO
measurement units: %
growth inhibition: 2.5
//
compound: CN(Cc1cnc2nc(N)nc(N)c2n1)c1ccc(C(=O)NC(CCC(=O)OCc2c(Cl)cccc2Cl)C(=O)OCc2c(Cl)cccc2Cl)cc1 (configuration not stated)
measurement units: %
growth inhibition: 22.1

Lookup: Return reported growth inhibition. Input compound: "CC(C)c1ccccc1NC(=O)CCC(=O)NN"
Found: -17.8

Lookup: Return reported growth inhibition. Input compound: "CCc1cccc(CC)c1NC(=O)OCCN(CC)CC"
Found: 11.6

Lookup: Return reported growth inhibition. Input compound: "O=C1c2ccccc2C(=O)c2cc3nc4c5ccccc5c5ccccc5c4nc3cc21"
Found: 3.35

----------
Assay: NCI Yeast Anticancer Drug Screen. Data for the sgs1 mgt1 strain (AID 161);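 note: 0% = growth of cultures given vehicle only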
Settings: S. cerevisiae sgs1 mgt1 strain, hits give high values; at 50.0 µM unless noted
Protocol: Growth inhibition of yeast strains with defined genetic alterations is measured as a screen for potential anti-cancer activity. Selected strains with alterations in DNA damage repair or cell cycle control were exposed to compounds and growth inhibition was measured relative to vehicle treated controls. The strain used in this assay is sgs1 mgt1
Compounds without any hit were thinned out: in the full panel of roughly 79,000, 15% have a hit.
property label: growth inhibition (%)
The answer is to be given in %; state only the numeric part.

See these solved cases before continuing.
molecule: Cc1ccc(C)n1-n1c(Cc2ccc(Cl)cc2)n[nH]c1=O
growth inhibition, %: 16
//
molecule: COc1ccc(OC)c(N)c1
growth inhibition, %: -7.55

Lookup: Return reported growth inhibition. Input molecule: "CCOC(=O)CN1C(=O)/C(=C2\SC(=S)N(CC(=O)OCC)C2=O)SC1=S"
Found: 16.1

Lookup: Return reported growth inhibition. Input molecule: CC(C)(C)N=NNc1cn(C2OC(CO)C(O)C2O)c(=O)[nH]c1=O (stereo not given)
Found: -16.9

Lookup: Return reported growth inhibition. Input molecule: "CNCCCn1c2ccccc2c2c3c(c(-c4ccsc4)cc21)C(=O)NC3=O"
Found: -19.9

Lookup: Return reported growth inhibition. Input molecule: "COC(=O)C(=O)c1c(C(=O)OC)nc2nnc(N)n2c1-c1cccc([N+](=O)[O-])c1"
Found: 3.1

Lookup: Return reported growth inhibition. Input molecule: "Cc1nc(N)c(N)c(=O)[nH]1"
Found: -1.75

Lookup: Return reported growth inhibition. Input molecule: "C=C[C@]1(C)C=C2CC[C@@H]3[C@](C)(CCC[C@@]3(C)C(=O)O)[C@H]2CC1"
Found: 13.8

Lookup: Return reported growth inhibition. Input molecule: "Cc1cccc(/C=N/NC(=S)NC(C)(C)C)n1"
Found: -4.45

Lookup: Return reported growth inhibition. Input molecule: "O=S(=O)(O)c1cc(N=[N+]([O-])c2ccc(N=Nc3ccccc3)cc2S(=O)(=O)O)ccc1/C=C/c1ccc(N=[N+]([O-])c2ccc(N=Nc3ccccc3)cc2S(=O)(=O)O)cc1S(=O)(=O)O"
Found: 9.8
